Target: C-X-C chemokine receptor type 6 (Homo sapiens)
Assay: antagonism of CXCR6 versus CXCR5 signaling – cell-based, CHO-K1 PathHunter beta-arrestin, luminescence, set 4, selectivity assay for CXCR6 antagonist project, profiling panel (AID 651919)
Conditions: run 1, at 79 µM (top of the series)
quantity-kind: inhibition (%)
Number in %, nothing else.

Consider the reported inhibition for these molecules:
COc1ccc(NC(=O)CN2C3CCCC2CC(NC(=O)c2cc(OC)cc(OC)c2)C3)cc1 (centres undefined) ... 11.5
COc1ccc(C(=O)NC2CC3CCCC(C2)N3CC(=O)Nc2ccc(Cl)cc2)cc1 (centres undefined) ... -4.29
O=C(CN1C2CCCC1CC(NC(=O)c1ccc3c(c1)OCO3)C2)Nc1ccccc1 (centres undefined) ... 12.3
COc1ccc(C(=O)NC2CC3CCCC(C2)N3CC(=O)Nc2ccc(C)cc2)cc1 (centres undefined) ... 13.2
COc1cc(OC)cc(C(=O)NC2CC3CCCC(C2)N3CC(=O)Nc2ccc(Cl)cc2)c1 (centres undefined) ... 5.14
COc1cc(OC)cc(C(=O)NC2CC3CCCC(C2)N3CC(=O)Nc2ccccc2)c1 (centres undefined) ... 12.4
COc1ccc(C(=O)NC2CC3CCCC(C2)N3CC(=O)Nc2ccc(Cl)cc2)cc1OC (centres undefined) ... 9.09
COc1ccc(C(=O)NC2CC3CCCC(C2)N3CC(=O)Nc2ccc(C)cc2)cc1OC (centres undefined) ... 23.5

The record that follows has no inhibition shown yet.
Challenge: Supply recorded inhibition for COc1ccc(NC(=O)CN2C3CCCC2CC(NC(=O)c2ccc4c(c2)OCO4)C3)cc1 (centres undefined) here.
Response given: -0.217

----------
Target: C-X-C chemokine receptor type 6 (Homo sapiens) (UniProt O00574)
Sequence (O00574 whole entry, looked up): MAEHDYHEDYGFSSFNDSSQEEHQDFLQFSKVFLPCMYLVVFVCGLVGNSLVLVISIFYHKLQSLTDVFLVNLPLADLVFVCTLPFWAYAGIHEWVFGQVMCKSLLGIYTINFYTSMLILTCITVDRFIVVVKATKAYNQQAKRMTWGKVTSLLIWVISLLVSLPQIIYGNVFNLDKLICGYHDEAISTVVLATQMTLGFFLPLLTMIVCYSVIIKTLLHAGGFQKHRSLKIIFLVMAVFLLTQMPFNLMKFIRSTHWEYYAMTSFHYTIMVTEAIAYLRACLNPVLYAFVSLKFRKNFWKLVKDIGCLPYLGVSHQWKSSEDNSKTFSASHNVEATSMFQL
Experiment: antagonism of CXCR6 versus CXCR5 signaling – cell-based, CHO-K1 PathHunter beta-arrestin, luminescence, set 4, selectivity assay for CXCR6 antagonist project, profiling panel (AID 651919)
Details: run 1, at 79 µM (top of the series)
quantity-kind: inhibition (%)
# output: bare number, implied unit %

Examples with their reported inhibition follow.
COc1ccccc1NC(=O)CN1C2CCCC1CC(NC(=O)c1cc(OC)c(OC)c(OC)c1)C2 (centres undefined) ... 97.4
COc1ccc(NC(=O)CN2C3CCCC2CC(NC(=O)c2ccc(OC)c(OC)c2)C3)cc1 (centres undefined) ... 12.2
COc1cc(C(=O)NC2CC3CCCC(C2)N3CC(=O)Nc2ccc(F)cc2)cc(OC)c1OC (centres undefined) ... 84.8

Challenge: Supply measured inhibition of O=C(CN1C2CCCC1CC(NC(=O)c1ccc3c(c1)OCO3)C2)Nc1ccc(F)cc1 (centres undefined) in your reply.
Response given: -0.62

Challenge: Read off the recorded inhibition for COc1ccc(CN2C3CCCC2CC(NC(=O)c2cc(OC)c(OC)c(OC)c2)C3)cc1 (centres undefined)
Response given: 57.9

Challenge: Given the molecule COc1cccc(C(=O)NC2CC3CCCC(C2)N3CC(=O)Nc2ccc(Cl)cc2)c1 (centres undefined) , write its reported inhibition.
Response given: 1.72

Challenge: In one line, give reported inhibition of the entry COc1cc(C(=O)NC2CC3CCCC(C2)N3CC(=O)Nc2ccc(Cl)cc2)cc(OC)c1OC (centres undefined) .
Response given: 88.2

Challenge: Given the molecule COc1ccc(NC(=O)CN2C3CCCC2CC(NC(=O)c2cc(OC)c(OC)c(OC)c2)C3)cc1 (centres undefined) , write its reported inhibition.
Response given: 66.4

Challenge: Determine from records and report inhibition for COc1cccc(C(=O)NC2CC3CCCC(C2)N3CC(=O)Nc2ccccc2)c1 (centres undefined)
Response given: 16.6

Source of measurements: PubChem BioAssay AID651919
